All figures here come from ChEMBL document CHEMBL3885881.

Overview of reported SODIUM across a group of molecules:
Organism: Rattus norvegicus
method-notes: DrugMatrix - Regimen: Daily Repeat
Assay type: toxicity, organism-based, Sprague-Dawley
Set-up: regimen Daily Repeat, gender Male, age 6-8 weeks
setup-conditions: in vivo, po, 0 mg/kg, 120 h, tissue Plasma, route oral GAVAGE, dose level Control, time 5 day, vehicle 100 % WATER
property: SODIUM (MEQ/L)

>  <molecule>
Fc1ccc([C@@H]2CCNC[C@H]2COc2ccc3c(c2)OCO3)cc1

>  <property>
SODIUM

>  <observed-result>
145

$$$$
>  <molecule>
CN1CCN(C(=O)OC2c3nccnc3C(=O)N2c2ccc(Cl)cn2)CC1 (centres undefined)

>  <property>
SODIUM

>  <observed-result>
145.55

$$$$
>  <molecule>
CC(CCc1ccccc1)NCC(O)c1ccc(O)c(C(N)=O)c1 (centres undefined)

>  <property>
SODIUM

>  <observed-result>
146.95

$$$$
>  <molecule>
CN1CCC[C@H]1c1cccnc1

>  <property>
SODIUM

>  <observed-result>
144.13

$$$$
>  <molecule>
COc1ccc(C(CN(C)C)C2(O)CCCCC2)cc1 (centres undefined)

>  <property>
SODIUM

>  <observed-result>
148.37

$$$$
>  <molecule>
NNC(=O)c1ccncc1

>  <property>
SODIUM

>  <observed-result>
145.17

$$$$
>  <molecule>
O=C1NC(=O)C(c2ccccc2)(c2ccccc2)N1

>  <property>
SODIUM

>  <observed-result>
142.77

$$$$
>  <molecule>
COc1cc2c(N3CCN(C(=O)Nc4ccc(OC(C)C)cc4)CC3)ncnc2cc1OCCCN1CCCCC1

>  <property>
SODIUM

>  <observed-result>
138

$$$$
>  <molecule>
CNCCC=C1c2ccccc2CCc2ccccc21

>  <property>
SODIUM

>  <observed-result>
142.77

$$$$
>  <molecule>
CC1(C)S[C@@H]2[C@H](NC(=O)[C@H](N)c3ccc(O)cc3)C(=O)N2[C@H]1C(=O)O

>  <property>
SODIUM

>  <observed-result>
143.85

$$$$
>  <molecule>
C[C@]12Cc3c[nH]nc3C[C@@H]1CC[C@@H]1[C@@H]2CC[C@@]2(C)[C@H]1CC[C@]2(C)O

>  <property>
SODIUM

>  <observed-result>
145

$$$$
>  <molecule>
Nc1ccc(S(=O)(=O)Nc2ccnn2-c2ccccc2)cc1

>  <property>
SODIUM

>  <observed-result>
140.53

$$$$
>  <molecule>
Cn1cnc([N+](=O)[O-])c1Sc1ncnc2nc[nH]c12

>  <property>
SODIUM

>  <observed-result>
142.68

$$$$
>  <molecule>
COc1cccc(C2(O)CCCCC2CN(C)C)c1 (centres undefined)

>  <property>
SODIUM

>  <observed-result>
145

$$$$
>  <molecule>
CC1COc2c(N3CCN(C)CC3)c(F)cc3c(=O)c(C(=O)O)cn1c23 (centres undefined)

>  <property>
SODIUM

>  <observed-result>
144.13

$$$$
>  <molecule>
Clc1ccc(C(c2ccccc2Cl)C(Cl)Cl)cc1 (centres undefined)

>  <property>
SODIUM

>  <observed-result>
142.43

$$$$
>  <molecule>
CC(C)(S)[C@@H](N)C(=O)O

>  <property>
SODIUM

>  <observed-result>
144.57

$$$$
>  <molecule>
Cc1cc(NS(=O)(=O)c2ccc(N)cc2)no1

>  <property>
SODIUM

>  <observed-result>
148.37

$$$$
>  <molecule>
NCC1(CC(=O)O)CCCCC1

>  <property>
SODIUM

>  <observed-result>
144.63

$$$$

###

Species on record: Rattus norvegicus
method-notes: DrugMatrix - Regimen: Daily Repeat
Format: toxicity, organism-based, Sprague-Dawley
Set-up: regimen Daily Repeat, gender Male, age 6-8 weeks
setup-conditions: in vivo, ip, 8 mg/kg, 120 h, tissue Blood, route intraperitoneal, dose level High, time 5 day, vehicle 100 % SALINE

>  <substance>
GOLD SODIUM THIOMALATE

>  <ABSOLUTE EOSINOPHIL, cells/µL>
56

$$$$

###

Measured URIC ACID, listed per entry for reference.
Species on record: Rattus norvegicus
method-notes: DrugMatrix - Regimen: Daily Repeat
Format: toxicity, organism-based, Sprague-Dawley
Design: regimen Daily Repeat, gender Male, age 6-8 weeks
setup-conditions: in vivo, po, 0 mg/kg, 120 h, tissue Plasma, route oral GAVAGE, dose level Control, time 5 day, […]
property: URIC ACID (mg/dL)

>  <molecule>
COCc1c(C(C)C)nc(C(C)C)c(/C=C/[C@@H](O)C[C@@H](O)CC(=O)O)c1-c1ccc(F)cc1 [CERIVASTATIN]

>  <property>
URIC ACID

>  <unit-abbreviation>
mg/dL

>  <observed-result>
1.55

$$$$
>  <molecule>
C=CCN [ALLYLAMINE]

>  <property>
URIC ACID

>  <unit-abbreviation>
mg/dL

>  <observed-result>
0.5

$$$$
>  <molecule>
Oc1c(Cl)cc(Cl)cc1Sc1cc(Cl)cc(Cl)c1O [BITHIONOL]

>  <property>
URIC ACID

>  <unit-abbreviation>
mg/dL

>  <observed-result>
0.8

$$$$
>  <molecule>
CCCC[C@@H](CC)COC(=O)c1ccccc1C(=O)OC[C@@H](CC)CCCC [BIS(2-ETHYLHEXYL)PHTHALATE]

>  <property>
URIC ACID

>  <unit-abbreviation>
mg/dL

>  <observed-result>
0.85

$$$$

###

Species: Rattus norvegicus
method-notes: DrugMatrix - Regimen: Daily Repeat
Type: toxicity, organism-based, Sprague-Dawley
Parameters: regimen Daily Repeat, gender Male, age 6-8 weeks
setup-conditions: in vivo, po, 0 mg/kg, […], tissue Blood, route oral GAVAGE, dose level Control, time 14 day
property: ABSOLUTE MONOCYTE (cells/µL)

>  <smiles-code>
C=CCN

>  <observed-result>
250

$$$$

###

Listing of recorded PLATELET COUNT by entry.
Species on record: Rattus norvegicus
method-notes: DrugMatrix - Regimen: Daily Repeat
Format: toxicity, organism-based, Sprague-Dawley
Parameters: regimen Daily Repeat, gender Male, age 6-8 weeks
setup-conditions: in vivo, iv, 0 mg/kg, 72 h, tissue Blood, dose level Control, time 3 day, vehicle 100 % SALINE

>  <smiles-code>
NCC[C@H](O)C(=O)N[C@@H]1C[C@H](N)[C@@H](O[C@H]2O[C@H](CN)[C@@H](O)[C@H](O)[C@H]2O)[C@H](O)[C@H]1O[C@H]1O[C@H](CO)[C@@H](O)[C@H](N)[C@H]1O

>  <unit-abbreviation>
x10E3/uL

>  <PLATELET COUNT>
865

$$$$
>  <smiles-code>
CC1(C)S[C@@H]2[C@H](NC(=O)[C@H](NC(=O)N3CCNC3=O)c3ccccc3)C(=O)N2[C@H]1C(=O)O

>  <unit-abbreviation>
x10E3/uL

>  <PLATELET COUNT>
903.17

$$$$
>  <smiles-code>
CC[C@@]1(O)C(=O)OCc2c1cc1n(c2=O)Cc2cc3ccccc3nc2-1

>  <unit-abbreviation>
x10E3/uL

>  <PLATELET COUNT>
1202.83

$$$$
>  <smiles-code>
CN(N=O)C(=O)N[C@@H](C=O)[C@@H](O)[C@H](O)[C@H](O)CO

>  <unit-abbreviation>
x10E3/uL

>  <PLATELET COUNT>
1307.17

$$$$

###

Species: Rattus norvegicus
method-notes: DrugMatrix - Regimen: Daily Repeat
Type: toxicity, organism-based, Sprague-Dawley
Parameters: regimen Daily Repeat, gender Male, age 6-8 weeks
setup-conditions: in vivo, iv, 0 mg/kg, 120 h, tissue Blood, dose level Control, time 5 day, vehicle 100 % SALINE

>  <smiles-code>
NCC[C@H](O)C(=O)N[C@@H]1C[C@H](N)[C@@H](O[C@H]2O[C@H](CN)[C@@H](O)[C@H](O)[C@H]2O)[C@H](O)[C@H]1O[C@H]1O[C@H](CO)[C@@H](O)[C@H](N)[C@H]1O

>  <HEMATOCRIT>
34.17%

$$$$
>  <smiles-code>
CC1(C)S[C@@H]2[C@H](NC(=O)[C@H](NC(=O)N3CCNC3=O)c3ccccc3)C(=O)N2[C@H]1C(=O)O

>  <HEMATOCRIT>
36.7%

$$$$
>  <smiles-code>
CN(N=O)C(=O)N[C@@H](C=O)[C@@H](O)[C@H](O)[C@H](O)CO

>  <HEMATOCRIT>
36.85%

$$$$
>  <smiles-code>
CC[C@@]1(O)C(=O)OCc2c1cc1n(c2=O)Cc2cc3ccccc3nc2-1

>  <HEMATOCRIT>
37.42%

$$$$

###

Species on record: Rattus norvegicus
method-notes: DrugMatrix - Regimen: Daily Repeat
Assay type: toxicity, organism-based, Sprague-Dawley
Parameters: regimen Daily Repeat, gender Male, age 6-8 weeks
setup-conditions: in vivo, ip, 0.5 mg/kg, […], tissue Blood, route intraperitoneal, dose level High, time 14 day, vehicle 100 % SALINE
property: ABSOLUTE EOSINOPHIL

>  <sequence-entry>
CISPLATIN

>  <observed-result>
56 cells/µL

$$$$
